Provide the reported relative binding (%) of each item.
- Tested on: epinephrine antibodies (γ-globulin fraction obtained in Example 2)
- MEASUREMENT_PROTOCOL: Equilibrium dialysis method, specificity of the epinephrine antibodies
- Set-up: species or system rabbit
- STUDY_CONDITIONS: binding of 3H-DL-epinephrine (10μl of 3.4×10^-5 M) with 10μl of 3.4×10^-3 M compound; antibody 5.5 × 10^-6 M; 25° C; 100 = no compound
One number for each entry, in %.

Past entries and their recorded results:
{"columns": ["COMPOUND", "relative binding (%)"],
 "data": [
  ["COc1cc(CC(=O)O)ccc1O [4-hydroxy-3-methoxyphenylacetic acid]", 91.7],
  ["COc1cc(C(O)CN)ccc1O (racemic)", 97.2],
  ["CNC[C@H](O)c1ccc(O)c(O)c1 [L-epinephrine]", 0],
  ["NCCc1ccc(O)c(O)c1", 88.0],
  ["N[C@@H](Cc1ccc(O)c(O)c1)C(=O)O", 90.7],
  ["CC(C)NC[C@H](O)c1ccc(O)c(O)c1", 72.9]
]}

Your task in this section: give relative binding (%) for each listed record.
1. CNCC(O)c1ccc(O)c(OC)c1 (racemic)
2. O=C(O)Cc1ccc(O)c(O)c1 [3,4-dihydroxyphenylacetic acid]
3. NC[C@H](O)c1ccc(O)c(O)c1 [L-norepinephrine]

1: 81.7; 2: 83.8; 3: 54.8
